Where do these numbers come from? They come from patent US20250188176A1.

Below, each of the binders is paired with its reported Ratio WT-kd/clone-kd value.
Biological target: T1, Extracellular domain (ECD) of the canine IL-4 receptor alpha-V5 epitope-AviTag-His Tag (canine)
T1 construct: monomeric form isolated by size exclusion; also called canine IL-4RA-V5-Avi-His; canine IL-4RA
T1 chain: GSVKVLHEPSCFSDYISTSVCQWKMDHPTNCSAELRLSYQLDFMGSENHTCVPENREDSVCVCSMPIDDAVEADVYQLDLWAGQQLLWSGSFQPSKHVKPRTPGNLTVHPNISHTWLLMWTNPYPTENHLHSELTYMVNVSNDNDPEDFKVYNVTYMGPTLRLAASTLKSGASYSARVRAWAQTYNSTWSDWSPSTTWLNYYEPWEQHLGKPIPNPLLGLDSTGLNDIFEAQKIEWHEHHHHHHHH
Assay: SPR, Fab-SASA captured on BSA;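 note: biacore T200 SPR, Fab-SASA variants from E. coli conditioned medium captured on BSA-coated CM5 chip, canine IL-4RA injected 120 s then 420 s dissociation, 1:1 model fit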
Write the number on its own, no unit after it.

Sample answers from the record:
Data request: Returns the measured Ratio WT-kd/clone-kd for the input binder. Input: TB640_005 Fab-SASA VH-L50F (Fab, V domains shown, not shown: SASA tag then His-tag) VH: EVQLVESGGDLVKPGGSLRLSCVASGFTFRDYAMTWVRQAPGKGLQWVSFISGSGGKTYYADAVKGRFTISRDNAKNTLYLQMNSLRAEDTAVYYCAVDRLTKTIRPQYYGLWVWGQGTLVTVSS VL: DIVMTQTPLSLSVSPGETASISCRSSQSLLYSIGYNYLDWYLQKPGQSPQGLIYLGSKRASGVPDRFSGSGSGTDFTLRISRVEANDTGVYYCMQGLQSPLTFGQGTKLEIKR
Data returned: 0.49

Data request: Returns the measured Ratio WT-kd/clone-kd for the input binder. Input: TB640_005 Fab-SASA VL-I33A (Fab, V domains shown, not shown: SASA tag then His-tag) VH: EVQLVESGGDLVKPGGSLRLSCVASGFTFRDYAMTWVRQAPGKGLQWVSLISGSGGKTYYADAVKGRFTISRDNAKNTLYLQMNSLRAEDTAVYYCAVDRLTKTIRPQYYGLWVWGQGTLVTVSS VL: DIVMTQTPLSLSVSPGETASISCRSSQSLLYSAGYNYLDWYLQKPGQSPQGLIYLGSKRASGVPDRFSGSGSGTDFTLRISRVEANDTGVYYCMQGLQSPLTFGQGTKLEIKR
Data returned: 0.62

Next:
Data request: Returns the measured Ratio WT-kd/clone-kd for the input binder. Input: TB640_005 Fab-SASA VH-T28N (Fab, V domains shown, not shown: SASA tag then His-tag) VH: EVQLVESGGDLVKPGGSLRLSCVASGFNFRDYAMTWVRQAPGKGLQWVSLISGSGGKTYYADAVKGRFTISRDNAKNTLYLQMNSLRAEDTAVYYCAVDRLTKTIRPQYYGLWVWGQGTLVTVSS VL: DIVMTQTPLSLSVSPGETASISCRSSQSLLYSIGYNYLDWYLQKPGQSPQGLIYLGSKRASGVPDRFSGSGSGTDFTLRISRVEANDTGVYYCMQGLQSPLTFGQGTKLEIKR
Data returned: 1.22

Data request: Returns the measured Ratio WT-kd/clone-kd for the input binder. Input: TB640_005 Fab-SASA VH-V114Q (Fab, V domains shown, not shown: SASA tag then His-tag) VH: EVQLVESGGDLVKPGGSLRLSCVASGFTFRDYAMTWVRQAPGKGLQWVSLISGSGGKTYYADAVKGRFTISRDNAKNTLYLQMNSLRAEDTAVYYCAVDRLTKTIRPQYYGLWQWGQGTLVTVSS VL: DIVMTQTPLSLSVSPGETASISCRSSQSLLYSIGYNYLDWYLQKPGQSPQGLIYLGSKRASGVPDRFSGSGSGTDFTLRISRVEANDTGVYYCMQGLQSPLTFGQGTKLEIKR
Data returned: 1.41

Data request: Returns the measured Ratio WT-kd/clone-kd for the input binder. Input: TB640_005 Fab-SASA VL-L55M (Fab, V domains shown, not shown: SASA tag then His-tag) VH: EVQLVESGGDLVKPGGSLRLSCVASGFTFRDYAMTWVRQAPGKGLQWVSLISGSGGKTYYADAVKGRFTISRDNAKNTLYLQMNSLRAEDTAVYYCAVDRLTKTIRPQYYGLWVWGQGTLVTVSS VL: DIVMTQTPLSLSVSPGETASISCRSSQSLLYSIGYNYLDWYLQKPGQSPQGLIYMGSKRASGVPDRFSGSGSGTDFTLRISRVEANDTGVYYCMQGLQSPLTFGQGTKLEIKR
Data returned: 1.42

Data request: Returns the measured Ratio WT-kd/clone-kd for the input binder. Input: TB640_005 Fab-SASA VL-L30T (Fab, V domains shown, not shown: SASA tag then His-tag) VH: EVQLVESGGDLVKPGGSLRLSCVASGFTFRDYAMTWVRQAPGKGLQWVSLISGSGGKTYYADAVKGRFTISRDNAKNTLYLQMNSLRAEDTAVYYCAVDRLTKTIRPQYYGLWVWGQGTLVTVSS VL: DIVMTQTPLSLSVSPGETASISCRSSQSLTYSIGYNYLDWYLQKPGQSPQGLIYLGSKRASGVPDRFSGSGSGTDFTLRISRVEANDTGVYYCMQGLQSPLTFGQGTKLEIKR
Data returned: 1.54
